- assayed_system: human PDHK2 (12-407) (Homo sapiens (Human))
- measurement_notes: Isothermal titration calorimetry (ITC) binding
- condition_parameters: ITC at 30° C., pH 7.5
Reported Kd is given for each of the following compounds.
observation_type: Kd

>>> print(df.to_string())
                                   compound                            assayed_system  observation_type  value_measured
0  CC(C)(C)n1cc2c(n1)CCN(C(=O)[C@@](C)(O)C(F)(F)F)C2 [Compound A8]  human PDHK2 (12-407) (Homo sapiens (Human))                Kd  300 to 3000 nM
1  CC1CN(C(=O)[C@@](C)(O)C(F)(F)F)Cc2cnn(-c3ccc(Cl)cc3)c21 (some centres unmarked) [Compound A9]  human PDHK2 (12-407) (Homo sapiens (Human))                Kd        < 300 nM
2  C[C@@H]1CN(C(=O)[C@@](C)(O)C(F)(F)F)Cc2cnc(-c3ccc(F)cc3F)n21 [Compound A54]  human PDHK2 (12-407) (Homo sapiens (Human))                Kd        < 300 nM
3  C[C@@](O)(C(=O)N1CCc2nn(-c3ccc(Cl)cc3)cc2C1)C(F)(F)F [Compound A2]  human PDHK2 (12-407) (Homo sapiens (Human))                Kd  300 to 3000 nM
4  C[C@@](O)(C(=O)N1CCn2c(nnc2-c2ccccc2)C1)C(F)(F)F [Compound A48]  human PDHK2 (12-407) (Homo sapiens (Human))                Kd        < 300 nM
5  C[C@@](O)(C(=O)N1CCc2c(cnn2-c2ccc(F)cc2F)C1)C(F)(F)F [Compound A5]  human PDHK2 (12-407) (Homo sapiens (Human))                Kd        < 300 nM
6  CC1CN(C(=O)[C@@](C)(O)C(F)(F)F)Cc2cnn(-c3ccc(F)cc3)c21 (some centres unmarked) [Compound A12]  human PDHK2 (12-407) (Homo sapiens (Human))                Kd        < 300 nM
7  C[C@@H]1CN(C(=O)[C@@](C)(O)C(F)(F)F)Cc2cnn(-c3ccc(Cl)cc3)c21 [Compound A10]  human PDHK2 (12-407) (Homo sapiens (Human))                Kd        < 300 nM

====

- assayed_system: human PDHK2 (12-407) (Homo sapiens (Human), UniProt Q15119)
observation_type: Kd

>>> print(df.to_string())
                                   compound  observation_type  value_measured
0  CC1CN(C(=O)[C@@](C)(O)C(F)(F)F)Cc2cn(-c3ccccc3)nc21 (some centres unmarked)                Kd  300 to 3000 nM
1  C[C@@](O)(C(=O)N1CCc2c(nnn2-c2ccccc2)C1)C(F)(F)F                Kd        < 300 nM
2  C[C@@H]1CN(C(=O)[C@@](C)(O)C(F)(F)F)Cc2cnn(-c3ccccc3F)c21                Kd        < 300 nM
3  C[C@@H]1CN(C(=O)[C@@](C)(O)C(F)(F)F)Cc2cnn(C3CCC(O)CC3)c21 (some centres unmarked)                Kd        < 300 nM
4  C[C@@H]1CN(C(=O)[C@@](C)(O)C(F)(F)F)Cc2cnn(C(C)(C)C)c21                Kd        < 300 nM
5  C[C@@](O)(C(=O)N1CCc2ncn(-c3ccccc3)c2C1)C(F)(F)F                Kd        < 300 nM
6  CC1CN(C(=O)[C@@](C)(O)C(F)(F)F)Cc2cnn(-c3ccccc3)c21 (some centres unmarked)                Kd        < 300 nM
7  C[C@H]1CN(C(=O)[C@@](C)(O)C(F)(F)F)Cc2cnn(-c3ccc(Cl)cc3)c21                Kd  300 to 3000 nM
